Target: Hypoxia-inducible factor 1-alpha (Homo sapiens) (UniProt Q16665)
Sequence (Q16665 whole entry, looked up): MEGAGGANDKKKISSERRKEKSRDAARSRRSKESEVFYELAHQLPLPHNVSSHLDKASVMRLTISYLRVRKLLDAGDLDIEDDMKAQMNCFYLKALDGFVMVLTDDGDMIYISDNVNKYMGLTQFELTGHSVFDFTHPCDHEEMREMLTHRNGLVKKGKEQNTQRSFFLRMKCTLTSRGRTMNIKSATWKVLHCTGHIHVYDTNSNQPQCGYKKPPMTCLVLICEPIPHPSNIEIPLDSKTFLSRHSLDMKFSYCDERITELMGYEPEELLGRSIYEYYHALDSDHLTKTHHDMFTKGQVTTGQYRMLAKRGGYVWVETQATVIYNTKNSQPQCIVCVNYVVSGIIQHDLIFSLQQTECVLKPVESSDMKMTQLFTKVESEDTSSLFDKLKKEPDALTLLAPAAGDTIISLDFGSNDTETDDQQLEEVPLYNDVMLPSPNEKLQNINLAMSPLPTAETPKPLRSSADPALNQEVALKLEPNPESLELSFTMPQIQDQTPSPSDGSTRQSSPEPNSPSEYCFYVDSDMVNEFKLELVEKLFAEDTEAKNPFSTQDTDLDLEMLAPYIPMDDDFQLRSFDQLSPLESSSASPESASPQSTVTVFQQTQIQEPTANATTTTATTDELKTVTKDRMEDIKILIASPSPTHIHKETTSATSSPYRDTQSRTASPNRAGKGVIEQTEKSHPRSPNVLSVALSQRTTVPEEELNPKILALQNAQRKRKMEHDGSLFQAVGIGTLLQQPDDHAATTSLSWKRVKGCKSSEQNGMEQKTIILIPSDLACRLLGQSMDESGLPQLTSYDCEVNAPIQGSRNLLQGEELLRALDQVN
Assay: ATG_HIF1a_CIS: Attagene CIS-FACTORIAL HepG2 Assay for human Hypoxia Inducible Factor 1 (HIF1A) (AID 2282951)
Details: HepG2 Attagene cis-factorial HIF1a reporter transcription; actives raise or lower the signal
Calls of active or inactive are those of the source. The calls were made as follows: active = hit-call score of the fitted dose curve at least 0.9, where 1 is the maximum; inactive = score below 0.9.
Entry note: the call must match one of active, inactive

Dear all, I need the recorded test outcome for CCCCC(CC)COC(=O)c1ccc(C(=O)OCC(CC)CCCC)c(C(=O)OCC(CC)CCCC)c1 (stereo not given) , thank you. inactive

GET /call?item= CCOc1cccc(C2(N3CCN(c4ccccc4)CC3)CCC(C)CC2)c1 (stereo not given) returns the recorded outcome of this test. inactive

Which outcome did this test record for the compound C[N+](C)(C)CC1CO1 (stereo not given) ? inactive

====

Read-out: growth arrest and DNA damage 45 (GADD45B), GADD45B (gene 4616)
Experiment: LTEA_HepaRG_GADD45B: Life Technologies and Expression Analysis (LTEA) Assay for growth arrest and DNA damage 45 (GADD45B) using HepaRG (AID 2283461)
Conditions: mRNA level, 48 h; actives raise or lower the signal
Active and inactive are the calls of the source. The calls were made as follows: active = hit-call score of the fitted dose curve at least 0.9, where 1 is the maximum; inactive = score below 0.9.
Allowed answers: active, inactive

molecule	class
Clc1ccc(Cl)c(Cl)c1	inactive

Could you please tell me the result logged for "Cc1cc(N=Nc2ccccc2C)ccc1N" in this assay? active

Please state the recorded outcome for this molecule: "OCCCl" inactive

Just curious, what result did "CS(=O)(=O)NC(=O)c1cc(Oc2ccc(C(F)(F)F)cc2Cl)ccc1[N+](=O)[O-]" get here? inactive

Assay outcome for "CCCSC(=O)N(CCC)CCC" : what was it? inactive

Please let me know the test result on file for ClC1=C(Cl)C2(Cl)C3C(Cl)C=CC3C1(Cl)C2(Cl)Cl (centres undefined) . inactive

====

Read-out: Alpha-fetoprotein (AFP) gene, AFP (gene 174)
Assay: LTEA_HepaRG_AFP: Life Technologies and Expression Analysis (LTEA) Assay for Alpha-fetoprotein (AFP) gene using HepaRG (AID 2283472)
Conditions: mRNA level, 48 h; actives raise or lower the signal
Active and inactive are the calls of the source. The calls were made as follows: active = hit-call score of the fitted dose curve at least 0.9, where 1 is the maximum; inactive = score below 0.9.
Reply using exactly one outcome from 1 for active, 0 for inactive

compound	class
CCCCCCCCCCCCCN1CC(C)OC(C)C1 (stereo not drawn)	0

Status in this test for "c1ccc(NNc2ccccc2)cc1" ? 0

Outcome logged for "ClC1=C(Cl)[C@]2(Cl)[C@H]3[C@H]([C@@H]4C=C[C@H]3C4)[C@@]1(Cl)C2(Cl)Cl" in this assay: 1

Status in this test for "[As]#[In]" ? 0

What outcome does the record of this test show for "CCN(CC)N=O" ? 0

====

Assay: ATG_E_Box_CIS: Attagene CIS-FACTORIAL HepG2 Assay for human Enhancer Box (E-box) (AID 2282936)
Details: HepG2 E-box cis-reporter transcription, actives raise or lower the signal
Calls of active or inactive are those of the source. How the source made its calls: active means hit-call score of the fitted dose curve at least 0.9, where 1 is the maximum; inactive means score below 0.9.
Outcome (select one): active, inactive

Some solved entries appear below for comparison.
molecule	class
c1ccc2c(c1)-c1cccc3cccc-2c13	inactive
c1ccc(N=Nc2ccccc2)cc1	inactive
C=CCc1ccc2c(c1)OCO2	inactive

Can you look up the reported call for "O=Cc1ccco1" for me? inactive

Assay result, entry "CCCCCCCCOC(=O)c1ccc(C(=O)OCCCCCCCC)c(C(=O)OCCCCCCCC)c1" — outcome? inactive

Call for entry CCCCCCCCCCCCCN1CC(C)OC(C)C1 (stereo not given) : inactive

Identify the outcome logged in this assay for the molecule shown: "O=[N+]([O-])c1ccc(Oc2ccc(Cl)cc2Cl)cc1" active

Per the assay record, what outcome was assigned to "CC(C)N(Cc1ccccc1)C(=O)C(C)(C)C" ? inactive

Returns: the outcome recorded for "COC(=O)Nc1nc2ccccc2[nH]1" in this assay. inactive

I would be grateful if you could indicate the recorded call for "Clc1ccc(Cl)c(Cl)c1" . inactive

Assay result, entry "CN(C)C(=O)Nc1ccc(Cl)cc1" — outcome? inactive

Kindly provide the recorded test outcome for the following molecule: "O=P(OCCCl)(OCCCl)OCCCl" inactive
